Reported Cas9 with SSAP activity (normalized) values are given for each entry in this list.
System: gene editing with Cas9
test-description: Screen of 322 new SSAP proteins, gene editing activity with Cas9 (Table 5)
Assay type: cell-based
applied-conditions: normalized
# output: bare number, no unit

molecule: SSAP_52: SEQ ID NO: 221 (protein) TIMDLLNDPKMKSQIQRALPNGMSAERIARIALTALRMNPQLQECSPQSFAAALMTSAQLGLEPNTPLGHAWLIPRKNHGKMEVQFELGYKGMLDLVRRSGMITAIFAEEVREKDEFEFEYGTNPYLKHKPYLGGDRGKVLFYYAVATFKDGGYAFKVMSIPEIEEARKLSQSANSPYSPWNRFYDEMAKKTVLKRLCKYLPLSIEVQRNLAQDETIRTQIEADDILDLPNENEFEVVEVEEIPGEEEKEEAKEGPFPNKALRESPTPLT
recorded-endpoint: Cas9 with SSAP activity (normalized)
endpoint-result: −0.573

Next:
# input For the molecule SSAP_195: SEQ ID NO: 364; Isoptericola dokdonensis (protein, listed as Isoptericola dokdonensis) TQDLATAIADQQPAQRRTAFDLVESMRGELHKALPEHASIDNFLRLALTELKMNPQLGNCSGESLLGALMTAARVGLEVGGPLGQFYLTPRRLKRDGWAVVPIVGYRGLITLARRAGVGQVNAVVVHEGDTFREGASSERGFFFDWEPAVERGKPVGALAAARLAGGDVQHRYLSLAEVHERRDRGGFKDGSNSPWATDYDAMVRKTALRALVPLLPQSTALSFAVQADEQVQRYDAGDIDIPALDETDTEDTK , report Cas9 with SSAP activity (normalized).
# output −1.896
